# key: entry, value: interaction score
- SYSTEM: T1, P5SC2
- T1 chain: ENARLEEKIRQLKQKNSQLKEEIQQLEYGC
- MEASUREMENT_NOTES: two-hybrid library CC1;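 note: natural log of median RNA to DNA barcode read ratio; higher means stronger binding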
- CONDITIONS: mean of both orientations
Lab note: record the figure alone, no unit after it.

{"columns": ["BINDER", "interaction score"],
 "data": [
  ["SPEDKIAQLKQKIQALKQENQQLEEENAALEYG [P4]", -2.74],
  ["ENQALEQEIAQLEQEIAALEQKNAQLKYG [P11]", -2.41],
  ["SPEDENAALEEKIAQLKQKNAALKEEIQALEYG [P5]", -2.84]
]}

Consider now this further binder.
For ENSQLEEKISQLKQKNSRLKEEIARLEYGC [P5SC1] , what is its reported interaction score?
-2.82
